These measurements were taken from PubChem BioAssay (NCI).

Experiment: NCI Yeast Anticancer Drug Screen. Data for the rad50 strain (AID 155);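 note: 0% = growth of vehicle-only cultures of the same strain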
Details: S. cerevisiae rad50 strain growth inhibition; at 5.0 µM (retest, dose inferred, filed as 0.5); active compounds read high
This is part of a sample that, as a whole, favours compounds with a hit. Of some 79,000 tested, about 15% had one in any assay.
outcome measure: growth inhibition (%)
Your answer is read as %, so omit the unit and give the number.

C1=C(c2c(-c3ccccc3)[nH]c3ccccc23)Cc2ccccc21 ... 3
NC(=O)c1ccccc1C(=O)O ... -6
Cc1c(Cl)ccc2c1NC(=O)C2(O)CC(=O)c1ccc(Cl)cc1 (stereo not drawn) ... 13
COc1ccc2c(c1)[n+]([O-])c(-c1ccc(Cl)c(Cl)c1)c(N)[n+]2[O-] ... 23
O=S(=O)(O)c1ccc2c(c1)C1C(C3C2C2(Cl)C(Cl)=C(Cl)C3(Cl)C2(Cl)Cl)C2(Cl)C(Cl)=C(Cl)C1(Cl)C2(Cl)Cl (stereo not drawn) ... -7

Return growth inhibition (reported value) for this compound: C[n+]1c2ccc(Cl)cc2nc2cc(-c3ccccc3)ccc21 15

Return growth inhibition for the following compound: O=C1/C(=N/N=C(c2ccccc2)c2ccccc2)c2ccccc2-c2ccccc21 7

Determine its reported growth inhibition: CC(C)c1cc(O)c(C(C)(C)C)cc1Cl -1

Provide measured growth inhibition value, entry: Cc1cnc(Sc2ncccc2[N+](=O)[O-])[nH]c1=O 2

Provide growth inhibition value for the following compound: CC(CN(C)C)C(/C=C/c1ccc(Cl)c(Cl)c1)=N\Nc1ccccc1 (stereo not drawn) 2
